Origin of measurements: PubChem BioAssay (Tox21)

Assay: qHTS RealTime-Glo MT Cell Viability Assay in HepG2 cells - 40 hour (AID 1224870); further: on the % scale 0 is the no-effect control and ±100 the full control effect; nearly all actives have a fitted effect of over 50% in size
Details: RealTime-Glo luminescence; series mostly up to 76.8 µM
Inconclusive results are not listed. Active and inactive are the calls of the source. The call rests on the fitted dose curve; in most records, active means well fitted cell-killing curve with a large enough effect in the repeat runs; inconclusive means weak or mixed curves, or effect the other way; inactive means flat fitted curve, though single readings scatter.
observedProperty: activity change, negative = cytotoxic

| compound | measurement |
| --- | --- |
| CN1CC(=O)N/C1=N/C(=O)Nc1cccc(Cl)c1 | inactive |
| CC(C)COC(=O)c1ccc(N)cc1 | inactive |
| CC1OC1C1CCC2(C)OC2C1 (configuration not stated) | inactive |
| NC(N)=NCCN1CCCCCCC1 | 0.511% [at 0.29 µM] (inactive) |
| COc1cccc(OC)c1C(=O)N[C@@H]1C(=O)N2[C@@H]1SC(C)(C)[C@@H]2C(=O)O | inactive |
| C=C[Si](OC(C)=O)(OC(C)=O)OC(C)=O | inactive |
| CO[C@@]1(NC(=O)C(C(=O)O)c2ccc(O)cc2)C(=O)N2C(C(=O)O)=C(CSc3nnnn3C)CO[C@@H]21 (some centres not stated) | inactive |
| O=[N+]([O-])c1cncn1CCN1CCOCC1 | inactive |
| CC(=O)Nc1ccc(OCC(O)CNC(C)C)cc1 (configuration not stated) | inactive |
| c1ccc(Cc2ccccc2)cc1 | inactive |
| CC(=O)O[C@@]12CO[C@@H]1C[C@H](O)[C@@]1(C)C(=O)[C@H](O)C3=C(C)[C@@H](OC(=O)[C@H](O)[C@@H](NC(=O)OC(C)(C)C)c4ccccc4)C[C@@](O)([C@@H](OC(=O)c4ccccc4)[C@H]21)C3(C)C | inactive |
| CCOC(=O)COC(=O)c1ccccc1C(=O)OCC | inactive |
